system: SK-MEL-5 melanoma; assay: NCI tumour cell line growth inhibition, 48 h
readoutKind: TGI (µM)
Numbers only; they are read as µM.

Respond only with TGI recorded for C=C(C)C1CCC2(CO)C(O)CC3(C)C(CCC4C5(C)CCC(O)C(C)(C)C5CCC43C)C12 (centres undefined)
21.3

Respond only with TGI recorded for Cc1ccc(C(=O)/C=C/N2CCN(c3cccc(C(F)(F)F)c3)CC2)cc1
29.2

Respond only with TGI recorded for CC(C)(C)[Si](Nc1ccccc1)(c1ccccc1)c1ccccc1
34.2

Respond only with TGI recorded for OCCCCC#Cc1ccccc1C#Cc1cccs1
26

Respond only with TGI recorded for O=C1O[C@H](COC(=O)c2ccccc2)[C@@H](OC(=O)c2ccccc2)C=C1OC(=O)c1ccccc1
36.2

Respond only with TGI recorded for Cc1sc2c(c1C)C(c1ccc(Cl)cc1)=N[C@@H](CC(=O)Nc1ccc(O)cc1)c1nnc(C)n1-2
14.9

Respond only with TGI recorded for CCCCCCCCC[C@@H]1C[C@@H]2CCC3C(C(=O)OCCCCNC(=O)OCc4ccccc4)=C(C)NC(=N1)N32 (some centres undefined)
2.93

Respond only with TGI recorded for Cc1ccc2oc(=O)cc(C3c4ccc([nH]4)C(c4cc(=O)oc5ccc(C)cc45)c4ccc([nH]4)C(c4cc(=O)oc5ccc(C)cc45)c4ccc([nH]4)C(c4cc(=O)oc5ccc(C)cc45)c4ccc3[nH]4)c2c1 (centres undefined)
0.127
